Cited source for all entries: ChEMBL document CHEMBL2218924

# residual activity values compiled below
- targetOfAssay: Serine/threonine-protein kinase tousled-like 2 (Homo sapiens)
- setupConditions: at 1 µM
State just the number; it will be interpreted in %.

See these solved cases before continuing.
• O=C1NC(=O)c2c1c1c3ccccc3n3c1c1c2c2ccccc2n1C1CCC3O1 = 62
• COc1ccc2c(c[n+](C)c3c4cc5c(cc4ccc23)OCO5)c1OC = 95
• C[S+]([O-])c1ccc(-c2nc(-c3ccc(F)cc3)c(-c3ccncc3)[nH]2)cc1 (stereo unspecified) = 113

Record `CC(C)[C@H](CO)Nc1nc(Nc2cccc(Cl)c2)c2ncn(C(C)C)c2n1` / Serine/threonine-protein kinase tousled-like 2 (Homo sapiens), residual activity recorded as 100

Record `N/C(=N\[N+](=O)[O-])N/N=C\c1ccc(-c2cccc([N+](=O)[O-])c2)o1` / Serine/threonine-protein kinase tousled-like 2 (Homo sapiens), residual activity recorded as 95

Record `COc1ccc2c(c1)/C(=C/c1cnc[nH]1)C(=O)N2` / Serine/threonine-protein kinase tousled-like 2 (Homo sapiens), residual activity recorded as 63

----------
- targetOfAssay: G protein-coupled receptor kinase 6 (Homo sapiens) (UniProt P43250)
- Sequence (P43250 whole entry, looked up): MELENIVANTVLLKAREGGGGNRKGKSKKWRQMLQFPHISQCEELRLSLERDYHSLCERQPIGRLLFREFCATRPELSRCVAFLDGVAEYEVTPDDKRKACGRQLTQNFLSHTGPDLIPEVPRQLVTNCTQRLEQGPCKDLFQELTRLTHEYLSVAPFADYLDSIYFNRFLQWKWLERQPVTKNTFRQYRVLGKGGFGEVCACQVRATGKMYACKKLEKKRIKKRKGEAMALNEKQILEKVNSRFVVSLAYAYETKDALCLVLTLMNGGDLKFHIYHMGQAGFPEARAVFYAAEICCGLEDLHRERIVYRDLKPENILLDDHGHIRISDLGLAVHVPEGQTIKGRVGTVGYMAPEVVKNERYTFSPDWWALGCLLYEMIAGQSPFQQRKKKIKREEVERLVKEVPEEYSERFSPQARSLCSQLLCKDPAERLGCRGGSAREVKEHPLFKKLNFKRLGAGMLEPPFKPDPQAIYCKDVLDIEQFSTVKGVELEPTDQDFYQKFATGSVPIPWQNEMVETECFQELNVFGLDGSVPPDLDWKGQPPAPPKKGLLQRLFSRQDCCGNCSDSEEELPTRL
- setupConditions: at 1 µM
readoutKind: residual activity (%)
State just the number; it will be interpreted in %.

See these solved cases before continuing.
* CC(=O)c1ccc(N2CCOCC2)cc1O | 95
* CCCCc1c(-c2ccc(O)cc2)[nH]c2nccnc12 | 98
* CN(C)CCCn1cc(C2=C(c3c[nH]c4ccccc34)C(=O)NC2=O)c2ccccc21 | 87

The compound `O=C1C(Cl)=C(N2C(=O)CCC2=O)C(=O)c2ccccc21` showed residual activity equal to 88

The compound `c1ccc2c(-c3ccncc3)c[nH]c2c1` showed residual activity equal to 87

The compound `c1cc(-c2cnn3cc(-c4ccc(OCCN5CCCCC5)cc4)cnc23)ccn1` showed residual activity equal to 101

----------
# residual activity values compiled below
- targetOfAssay: ALK tyrosine kinase receptor (Homo sapiens)
- setupConditions: at 1 µM
State just the number; it will be interpreted in %.

- CC(C)[C@H](CO)Nc1nc(Nc2cccc(Cl)c2)c2ncn(C(C)C)c2n1: 71
- COc1ccc2c(c1)/C(=C/c1cnc[nH]1)C(=O)N2: 63

The compound `c1cc(-c2cnn3cc(-c4ccc(OCCN5CCCCC5)cc4)cnc23)ccn1` showed residual activity equal to 76

The compound `O=c1[nH]c2ccccc2n1C1CCN(Cc2ccc(-c3nc4cc5[nH]cnc5cc4nc3-c3ccccc3)cc2)CC1` showed residual activity equal to 90

The compound `O=C1NC(=O)c2c1c1c3ccccc3n3c1c1c2c2ccccc2n1C1CCC3O1` showed residual activity equal to 81

The compound `COc1cc(OC)c(/C=C2\C(=O)Nc3ccccc32)c(OC)c1` showed residual activity equal to 89

The compound `CN[C@@H]1C[C@H]2O[C@@](C)([C@@H]1OC)n1c3ccccc3c3c4c(c5c6ccccc6n2c5c31)C(=O)NC4` showed residual activity equal to 0

----------
- targetOfAssay: CDK3/cyclin E (Homo sapiens) (UniProt P24864+O96020+Q00526)
- setupConditions: at 10 µM
# residual activity values compiled below
State just the number; it will be interpreted in %.

See these solved cases before continuing.
- C[S+]([O-])c1ccc(-c2nc(-c3ccc(F)cc3)c(-c3ccncc3)[nH]2)cc1 (stereo not given): 93
- COC(=O)[C@@]1(O)C[C@H]2O[C@]1(C)n1c3ccccc3c3c4c(c5c6ccccc6n2c5c31)C(=O)NC4: 2
- c1cc(-c2cnn3cc(-c4ccc(OCCN5CCCCC5)cc4)cnc23)ccn1: 41

The compound `O=[N+]([O-])/C=C/c1ccc2c(c1)OCO2` showed residual activity equal to 88

The compound `CC(C)[C@H](CO)Nc1nc(Nc2cccc(Cl)c2)c2ncn(C(C)C)c2n1` showed residual activity equal to 3
